Biological target: Ba/F3 EGFR L858R/T790M/C797S (LTC) (Homo sapiens, UniProt P00533, T790M/C797S/L858R, cells depend on it)
Sequence (P00533 whole entry T790M/C797S/L858R): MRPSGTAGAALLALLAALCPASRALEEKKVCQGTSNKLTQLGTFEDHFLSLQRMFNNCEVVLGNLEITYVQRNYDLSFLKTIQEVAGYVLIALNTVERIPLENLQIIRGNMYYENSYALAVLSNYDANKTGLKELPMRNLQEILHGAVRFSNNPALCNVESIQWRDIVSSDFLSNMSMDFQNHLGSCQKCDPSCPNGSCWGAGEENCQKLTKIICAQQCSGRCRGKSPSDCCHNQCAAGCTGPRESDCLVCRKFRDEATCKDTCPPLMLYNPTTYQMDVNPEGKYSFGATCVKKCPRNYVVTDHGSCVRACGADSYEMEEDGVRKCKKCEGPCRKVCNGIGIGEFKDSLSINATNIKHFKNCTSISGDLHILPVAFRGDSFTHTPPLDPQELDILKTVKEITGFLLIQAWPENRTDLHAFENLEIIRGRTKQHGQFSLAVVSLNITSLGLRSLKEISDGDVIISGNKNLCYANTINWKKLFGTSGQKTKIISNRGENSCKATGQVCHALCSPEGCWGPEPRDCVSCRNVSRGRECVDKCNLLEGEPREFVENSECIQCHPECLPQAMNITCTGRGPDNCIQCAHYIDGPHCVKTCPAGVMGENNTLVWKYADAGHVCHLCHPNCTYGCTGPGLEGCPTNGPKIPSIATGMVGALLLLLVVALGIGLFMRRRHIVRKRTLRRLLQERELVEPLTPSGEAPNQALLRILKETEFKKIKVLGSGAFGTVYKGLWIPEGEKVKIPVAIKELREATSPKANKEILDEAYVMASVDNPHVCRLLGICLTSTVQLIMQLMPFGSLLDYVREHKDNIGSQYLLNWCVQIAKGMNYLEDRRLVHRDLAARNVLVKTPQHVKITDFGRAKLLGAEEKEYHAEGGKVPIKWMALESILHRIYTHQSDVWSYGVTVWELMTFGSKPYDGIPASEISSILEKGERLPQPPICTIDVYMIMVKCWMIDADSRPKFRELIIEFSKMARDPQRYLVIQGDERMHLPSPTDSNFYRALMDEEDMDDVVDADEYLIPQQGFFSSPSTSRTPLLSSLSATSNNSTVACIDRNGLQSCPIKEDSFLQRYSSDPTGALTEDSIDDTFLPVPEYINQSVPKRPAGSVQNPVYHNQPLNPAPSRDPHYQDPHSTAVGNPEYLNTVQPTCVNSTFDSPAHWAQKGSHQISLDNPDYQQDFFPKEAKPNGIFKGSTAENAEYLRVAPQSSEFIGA
Assay: Cell growth inhibitory ability in Ba/F3 cells overexpressing EGFR L858R/T790M/C797S (MTS, CellTiter 96 AQueous)
Type: cell-based
Settings: 72 hours, MTS absorbance at 490 nm, read-out: Ba/F3 EGFR triple mutant L858R/T790M/C797S, IC50
Description: In order to confirm that the compound represented by formula 1 provided in one aspect of the present invention acts as an allosteric inhibitor against WT and mutant of EGFR, the cell growth inhibitory effect was evaluated in BaF3 cells overexpressing WT and mutant of EGFR. […] The cell survival inhibitory effect of the compound according to each EGFR mutation was analyzed by the following analysis method. […]
Overview of reported GI50 across a group of compounds:

Input Smiles | GI50
NC1CCN(c2ccc(-c3cc(OC(F)(F)F)cc(C(=O)N[C@@H](c4cc5ccccc5[nH]4)c4cc(F)ccc4O)c3)cc2)CC1 | > 200 nM
Cc1cc(C(=O)N[C@@H](c2cc3ccccc3[nH]2)c2cc(F)ccc2O)cc(-c2ncc(N3CCN(C)CC3)cn2)c1 | < 30 nM
Cc1cc(C(=O)N[C@@H](c2cc3ccccc3[nH]2)c2cc(F)ccc2O)cc(-c2ncc(N3CCC(n4cncn4)CC3)cn2)c1 | 30 to 200 nM
Cc1cc(C(=O)N[C@@H](c2cc3ccccc3[nH]2)c2cc(F)ccc2O)cc(-c2ncc(N3CCCCC3)cn2)c1 | 30 to 200 nM
Cc1cc(C(=O)N[C@@H](c2cc3ccccc3[nH]2)c2cc(F)ccc2O)cc(-c2cnc(N3CCC(N)CC3)nc2)c1 | 30 to 200 nM
Cc1cc(C(=O)N[C@@H](c2cc3ccccc3[nH]2)c2cc(F)ccc2O)cc(-c2ncc(N3CC[C@@H](N)C3)cn2)c1 | < 30 nM
CCCC1CCN(c2cnc(-c3cc(C)cc(C(=O)N[C@@H](c4cc5ccccc5[nH]4)c4cc(F)ccc4O)c3)nc2)CC1 | > 200 nM
NC1CCN(c2ccc(-c3cc(F)cc(C(=O)N[C@@H](c4cc5ccccc5[nH]4)c4cc(F)ccc4O)c3)cc2)CC1 | > 200 nM
Cc1cc(C(=O)N[C@@H](c2cc3ccccc3[nH]2)c2cc(F)ccc2O)cc(-c2ncc(N3CCN(C4CCN(C)CC4)CC3)cn2)c1 | < 30 nM
Cc1cc(C(=O)N[C@@H](c2cc3ccc(F)cc3[nH]2)c2cc(F)ccc2O)cc(-c2ccc(N3CCC(N)CC3)cc2)c1 | 30 to 200 nM
Cc1cc(C(=O)N[C@@H](c2cc3ccccc3[nH]2)c2cc(F)ccc2O)cc(-c2cc(C)c(N3CCC(N)CC3)cn2)c1 | < 30 nM
COc1ccc(F)cc1[C@@H](NC(=O)c1cc(OC(F)(F)F)cc(-c2ccc(N3CCC(N)CC3)cc2)c1)c1cc2ccccc2[nH]1 | > 200 nM
Cc1cc(C(=O)N[C@@H](c2cc3ccccc3[nH]2)c2cc(F)ccc2O)cc(-c2ncc(N3CCC(N)CC3)cn2)c1 | < 30 nM
Cc1cc(C(=O)N[C@@H](c2cc3ccccc3[nH]2)c2cc(F)ccc2O)cc(-c2ncc(N3CCC(N4CCCCC4)CC3)cn2)c1 | < 30 nM
